- System: human PBMCs
- Method: Cytokine production by human PBMCs treated with ODNs, MagPix Multi-Plex
- Format: cell-based
- Condition description: high-dose ODN 10 μM, human PBMC, 24 hrs
- Method: PBMC from 3 donors were isolated from Buffy Coat (Blood Center of NY). The cells were washed with PBS and re-suspended in RPMI-1640 Media with 5% Human AB Serum, 1% Pen/Strep and 2 mM L-glutamine. The cells were then plated in 96-well plates at 250,000 cells/well. […] After 24 hrs, the supernatant was harvested and tested for cytokine production using MagPix Multi-Plex Technology. The following cytokines were tested: IL-6, IL-10, IL-12p40, IFN-α, IFN-γ, IP-10, IL-1β and TNF-α.
Oligonucleotides are written 5' to 3', each unit as a sugar letter and its base; * is a phosphorothioate linkage, no mark a phosphodiester; rarer units and linkages stand in square brackets, end groups in braces. Plain capitals give the bases only. d = 2'-deoxy (DNA); m = 2'-O-methyl
So I've got a bunch of substances here, and I need their IL-12p40 values.
Entry rule: numbers only, all in pg/mL.

The recorded IL-12p40 for entry ODN301C: 5′-GTAGCCCCATCACCCAGCAGC-3′, fully PS, GC-containing (DNA dG*dT*dA*dG*dC*dC*dC*dC*dA*dT*dC*dA*dC*dC*dC*dA*dG*dC*dA*dG*dC) equals 0.8

The recorded IL-12p40 for entry ODN302: 5′-GTCGCTCTTCTCCTCCGCCAG-3′, fully PS; scrambled (non-SMAD7 AON) control sequence with two CG sequences (DNA dG*dT*dC*dG*dC*dT*dC*dT*dT*dC*dT*dC*dC*dT*dC*dC*dG*dC*dC*dA*dG) equals 5.2

The recorded IL-12p40 for entry ODN150C: 5′-G*G*A*ACAGTTAGTCCATa*G*G*C-3′, PO except * = PS; control lacking CG-dinucleotide sequences (DNA GGAACAGTTAGTCCATGGC; listed as DNA, chemistry not fully specified) equals 0

The recorded IL-12p40 for entry ODN7040C: 5′-CTGCCAAGTTCACCTGCA*C*C*-3′, PO; * = 2′OMe; control lacking CG-dinucleotide sequences (DNA dCdTdGdCdCdAdAdGdTdTdCdAdCdCdTdGdCmAmCmC) equals 0.1

The recorded IL-12p40 for entry ODN150: 5′-G*G*A*ACAGTTCGTCCAT*G*G*C-3′, PO except * = PS; antisense to p65 of NF-kB mRNA; tested clinically for ulcerative colitis (DNA dG*dG*dA*dAdCdAdGdTdTdCdGdTdCdCdAdT*dG*dG*dC) equals 0

The reported numbers originate from patent US20180289692A1.
